molecular target: MAGI2_6, Q86UL8; assay: holdup assay; parameters: key: below the threshold = too weak to quantify, mostly under pKd 3.1 to 4; settings: plain residues with an end cap or a label only (N-terminal biotin on a linker: ado-ado)
Sequence (Q86UL8 1141-1229): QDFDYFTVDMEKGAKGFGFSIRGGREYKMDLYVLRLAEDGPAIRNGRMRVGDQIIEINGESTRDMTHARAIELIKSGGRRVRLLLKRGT
measured parameter: pKd

HYPASPDSWV [CTNND2, Q9UQB3]	5.37
NSTHNLKDYV [CLDN20, P56880]	below the threshold
SSSVNVSSNL [CXCR1, P25024]	below the threshold
KAEEKPPSKV [SCN4B, Q8IWT1]	below the threshold

# evaluate next
Prompt: Look up pKd for this binder: PSDSVGKDVF [EGLN1, Q9GZT9]
Response: below the threshold

Data origin: paper PMC9482650
